Assay: Half-life in BALB/c mouse at 3 mg/kg, po and 1 mg/kg, iv measured upto 24 hrs
Assay type: ADME, organism-based
Details: in vivo
Readout Kind: half-life
Note: a bare number is incomplete; add the unit.

Record summary for CNC(=O)c1ncn2cc(-c3c(F)ccc(NS(=O)(=O)c4cc(Cl)cnc4OC)c3F)ncc12 : reported half-life = 10 h

* * *

Target: Receptor-interacting serine/threonine-protein kinase 3 (Homo sapiens)
Sequence (Q9Y572 whole entry): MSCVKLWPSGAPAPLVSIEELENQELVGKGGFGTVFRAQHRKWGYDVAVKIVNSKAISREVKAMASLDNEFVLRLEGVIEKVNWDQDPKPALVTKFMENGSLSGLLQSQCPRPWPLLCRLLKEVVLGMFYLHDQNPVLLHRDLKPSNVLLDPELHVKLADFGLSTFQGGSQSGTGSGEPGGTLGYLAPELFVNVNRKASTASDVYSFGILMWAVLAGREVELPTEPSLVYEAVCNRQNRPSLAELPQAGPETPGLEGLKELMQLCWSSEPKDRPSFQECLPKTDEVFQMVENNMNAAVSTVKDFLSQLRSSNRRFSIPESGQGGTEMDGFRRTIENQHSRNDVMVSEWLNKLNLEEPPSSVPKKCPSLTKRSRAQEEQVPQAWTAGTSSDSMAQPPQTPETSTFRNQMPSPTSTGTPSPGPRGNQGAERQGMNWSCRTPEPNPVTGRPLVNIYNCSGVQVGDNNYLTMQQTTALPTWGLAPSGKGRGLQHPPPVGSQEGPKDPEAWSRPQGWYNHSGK
Assay: Inhibition of RIPK3 in human MOLM16 cells
Readout Kind: pIC50
Give bare numbers, as −log10 of the molar value.

pIC50 in this record for CNC(=O)c1ncn2cc(-c3c(F)ccc(NS(=O)(=O)c4cc(Cl)cnc4OC)c3F)ncc12 : 5.05
